Values compiled from paper PMC8577775.

Test system: PDAC PDO model T031P
Assay summary: In vitro organoid formation assay (CellTiter-Glo 3D)
Format: cell-based
Test parameters: Homo sapiens, PDO model not named in the sentence (Fig 8B: T020P and T031P)
Recorded endpoint: IC50

Note to self: IC50 recorded for OC(c1ccc(-c2ccc(CN3CCN(Cc4ccncc4)CC3)cc2)c(F)c1)(C(F)(F)F)C(F)(F)F [SR2211, reference compound] was ~1000 nM

* * *

System: PDAC PDO model T031P
Assay summary: In vitro organoid formation assay (CellTiter-Glo 3D)
Assay type: cell-based
Test parameters: Homo sapiens, T031P; 168 hours; treated 24 hr post-plating
Recorded endpoint: IC50
Express your answer as a number followed by its unit.

The observed IC50 for O=C(O)[C@@H]1CCC(c2nn(C(=O)c3c(Cl)cccc3C(F)(F)F)c3cccc(F)c23)=C[C@H]1O when tested with PDAC PDO model T031P stands at 10 µM
